# study-target: EP2 (Homo sapiens, UniProt P43116)
# Sequence (P43116 whole entry): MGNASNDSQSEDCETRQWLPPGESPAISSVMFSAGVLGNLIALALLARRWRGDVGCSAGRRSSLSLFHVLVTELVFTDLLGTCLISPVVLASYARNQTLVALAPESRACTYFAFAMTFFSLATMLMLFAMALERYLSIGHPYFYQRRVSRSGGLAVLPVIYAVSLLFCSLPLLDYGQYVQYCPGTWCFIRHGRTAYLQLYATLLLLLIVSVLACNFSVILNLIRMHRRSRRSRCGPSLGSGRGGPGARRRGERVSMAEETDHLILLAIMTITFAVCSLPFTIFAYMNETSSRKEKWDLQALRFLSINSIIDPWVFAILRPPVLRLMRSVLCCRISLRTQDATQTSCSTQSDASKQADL
# experiment: EP2 flipr functional assay
Listing of entries alongside the reported pEC50.
Note on units: pEC50 is unitless, being -log10 of a concentration expressed in mol/L.

Recorded results for 4 compounds are shown here.
# compound, pEC50
data = [
    ("CCCCC[C@H](O)c1ccc(N2C(=O)NC(=O)[C@H]2CCCc2ccc(C(=O)O)s2)cc1", 7.64),
    ("CCCCC[C@@H](O)c1ccc(N2C(=O)NC(=O)[C@@H]2CCCc2ccc(C(=O)O)s2)cc1", 9.00),
    ("CCCCC[C@H](O)c1ccc(N2C(=O)NC(=O)[C@@H]2CCCc2ccc(C(=O)O)s2)cc1", 8.40),
    ("CCCCC[C@H](O)c1ccc(N2C(=O)NC(=O)C2CCCc2ccc(C(=O)O)s2)cc1 (stereo in doubt)", 8.46),
]

Could you now look at the following compound, please?
Which pEC50 is reported for this compound? CCCCCC(=O)c1ccc(N2C(=O)NC(=O)C2CCCc2ccc(C(=O)O)s2)cc1 (centres unmarked) 7.77

---

# study-target: EP4 (Homo sapiens)
# Sequence (P35408 whole entry): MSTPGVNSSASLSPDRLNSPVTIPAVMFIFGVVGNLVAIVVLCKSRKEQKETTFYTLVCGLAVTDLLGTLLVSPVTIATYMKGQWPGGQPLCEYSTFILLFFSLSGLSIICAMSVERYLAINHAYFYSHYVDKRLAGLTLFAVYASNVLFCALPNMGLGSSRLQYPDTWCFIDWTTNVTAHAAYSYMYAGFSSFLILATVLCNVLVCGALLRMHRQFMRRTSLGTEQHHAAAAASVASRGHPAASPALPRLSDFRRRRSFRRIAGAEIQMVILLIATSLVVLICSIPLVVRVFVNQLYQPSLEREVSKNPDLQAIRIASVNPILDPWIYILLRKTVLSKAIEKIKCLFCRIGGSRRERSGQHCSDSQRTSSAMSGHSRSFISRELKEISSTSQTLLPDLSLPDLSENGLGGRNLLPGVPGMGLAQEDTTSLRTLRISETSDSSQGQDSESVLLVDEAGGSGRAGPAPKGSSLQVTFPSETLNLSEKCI
# experiment: EP4 flipr functional assay
reported-property: EC50 (µM)
Value expressed in µM; do not type the unit.

# molecule, reported-property, reading-unit, reported-measurement
data = [
    ("CCCCCC(=O)c1ccc(N2C(=O)NC(=O)C2CCCc2ccc(C(=O)O)s2)cc1 (centres unmarked)", "EC50", "µM", 17.5),
]

Please provide the recorded EC50 for CCCCC[C@@H](O)c1ccc(N2C(=O)NC(=O)[C@@H]2CCCc2ccc(C(=O)O)s2)cc1 , tested on EP4 (Homo sapiens). 2

---

# study-target: hEP3A (Homo sapiens)
# Sequence (P43115 whole entry): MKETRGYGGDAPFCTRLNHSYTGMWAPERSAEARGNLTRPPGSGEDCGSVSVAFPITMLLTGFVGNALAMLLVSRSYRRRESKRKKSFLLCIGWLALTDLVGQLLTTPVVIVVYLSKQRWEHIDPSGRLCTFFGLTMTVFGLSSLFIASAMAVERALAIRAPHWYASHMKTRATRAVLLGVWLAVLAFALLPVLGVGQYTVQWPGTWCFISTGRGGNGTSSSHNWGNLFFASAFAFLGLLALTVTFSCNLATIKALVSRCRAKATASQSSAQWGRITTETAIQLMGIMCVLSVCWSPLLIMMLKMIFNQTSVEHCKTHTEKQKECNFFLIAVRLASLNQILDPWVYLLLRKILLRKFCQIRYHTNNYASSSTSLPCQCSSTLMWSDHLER
# experiment: Other receptors functional assay, hEP3A
# Type: cell-based
reported-property: EC50 (nM)
Value expressed in nM; do not type the unit.

# molecule, reported-measurement
measured = [
    ("CCCCCC(=O)c1ccc(N2C(=O)NC(=O)C2CCCc2ccc(C(=O)O)s2)cc1 (centres unmarked)", 131),
]

Which EC50 is reported for this molecule? CCCCC[C@H](O)c1ccc(N2C(=O)NC(=O)C2CCCc2ccc(C(=O)O)s2)cc1 (stereo in doubt) 10

Which EC50 is reported for this molecule? CCCCC[C@H](O)c1ccc(N2C(=O)NC(=O)[C@H]2CCCc2ccc(C(=O)O)s2)cc1 29

Which EC50 is reported for this molecule? CCCCC[C@H](O)c1ccc(N2C(=O)NC(=O)[C@@H]2CCCc2ccc(C(=O)O)s2)cc1 5

Which EC50 is reported for this molecule? CCCCC[C@@H](O)c1ccc(N2C(=O)NC(=O)[C@@H]2CCCc2ccc(C(=O)O)s2)cc1 15

---

Listing of entries alongside the reported EC50.
# study-target: hDP (Homo sapiens, UniProt Q13258)
# Sequence (Q13258 1-359): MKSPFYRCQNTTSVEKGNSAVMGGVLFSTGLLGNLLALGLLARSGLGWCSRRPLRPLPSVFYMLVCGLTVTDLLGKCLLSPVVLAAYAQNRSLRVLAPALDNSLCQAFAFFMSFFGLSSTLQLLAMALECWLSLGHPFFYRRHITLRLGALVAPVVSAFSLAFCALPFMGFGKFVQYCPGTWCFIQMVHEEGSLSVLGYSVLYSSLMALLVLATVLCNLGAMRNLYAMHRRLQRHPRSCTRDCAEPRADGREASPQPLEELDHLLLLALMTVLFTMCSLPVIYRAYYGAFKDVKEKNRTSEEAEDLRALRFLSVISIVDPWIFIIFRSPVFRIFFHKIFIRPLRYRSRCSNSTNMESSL
# experiment: Other receptors functional assay, hDP
# Type: cell-based

Recorded results for 4 compounds are shown here.
# compound, EC50
data = [
    ("CCCCC[C@H](O)c1ccc(N2C(=O)NC(=O)[C@@H]2CCCc2ccc(C(=O)O)s2)cc1 [Example 7]", "> 10000 nM"),
    ("CCCCC[C@H](O)c1ccc(N2C(=O)NC(=O)[C@H]2CCCc2ccc(C(=O)O)s2)cc1 [Example 8]", "> 10000 nM"),
    ("CCCCCC(=O)c1ccc(N2C(=O)NC(=O)C2CCCc2ccc(C(=O)O)s2)cc1 (centres unmarked) [Example 1]", "8810 nM"),
    ("CCCCC[C@@H](O)c1ccc(N2C(=O)NC(=O)[C@@H]2CCCc2ccc(C(=O)O)s2)cc1 [Example 10]", "19300 nM"),
]

Which EC50 is reported for this compound? CCCCC[C@H](O)c1ccc(N2C(=O)NC(=O)C2CCCc2ccc(C(=O)O)s2)cc1 (stereo in doubt) [Example 2] 17400 nM
